- target.desc: P. falciparum apicoplast DNA polymerase (Pf-apPOL) (Plasmodium falciparum)
- Sequence (Q8ILY1 entry or part of it): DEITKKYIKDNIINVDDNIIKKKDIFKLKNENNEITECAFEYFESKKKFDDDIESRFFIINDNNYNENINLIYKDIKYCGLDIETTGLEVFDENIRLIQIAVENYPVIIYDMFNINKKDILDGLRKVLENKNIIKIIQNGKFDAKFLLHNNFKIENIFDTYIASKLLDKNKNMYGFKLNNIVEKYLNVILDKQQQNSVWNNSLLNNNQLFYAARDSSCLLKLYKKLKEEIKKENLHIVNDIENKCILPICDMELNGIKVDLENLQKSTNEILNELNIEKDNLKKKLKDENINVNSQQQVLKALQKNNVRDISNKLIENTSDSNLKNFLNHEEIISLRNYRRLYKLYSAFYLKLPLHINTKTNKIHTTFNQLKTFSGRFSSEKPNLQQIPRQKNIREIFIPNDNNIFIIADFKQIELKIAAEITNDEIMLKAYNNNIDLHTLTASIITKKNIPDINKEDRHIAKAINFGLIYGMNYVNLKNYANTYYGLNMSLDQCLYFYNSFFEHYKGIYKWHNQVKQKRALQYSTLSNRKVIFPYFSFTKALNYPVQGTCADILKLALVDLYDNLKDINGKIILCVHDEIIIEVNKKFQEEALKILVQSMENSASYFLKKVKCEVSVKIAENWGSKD
- assay: Fluorescence-based high-throughput DNA polymerase assay (molecular beacon), primary screen and dose-response;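 on % inhibition apPOL 180': test concentration in µM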
- Assay type: biochemical
- condition.summary: DRC-1; 180'; concentration 20
measurement.name: % inhibition apPOL 180' (%)
Field: numeric (%). Do not append units.

Any idea what % inhibition apPOL 180' was measured for Oc1cccc2ccc(/C=C/c3ccc4c(c3)OCO4)nc12 ?
59.792

Any idea what % inhibition apPOL 180' was measured for CCOc1ccc(/C=C2\N=C(c3cc([N+](=O)[O-])cc([N+](=O)[O-])c3)OC2=O)cc1 ?
66.1189

Any idea what % inhibition apPOL 180' was measured for O=C(O)CCS(=O)(=O)c1ccc(-c2ccc(S(=O)(=O)CCC(=O)O)cc2)cc1 ?
50.8957

Any idea what % inhibition apPOL 180' was measured for O=C(NCC1CCN(C2CCCC2)CC1)C(=O)NC1CCCC1 ?
63.8149

Any idea what % inhibition apPOL 180' was measured for COc1cc(Cl)c(C)cc1NC(=O)Cn1ccc2c(=O)[nH]ccc21 ?
50.4837

Any idea what % inhibition apPOL 180' was measured for Cc1ccc(C)c(CSc2nc(C3CCCCC3)c(C#N)c(=O)[nH]2)c1 ?
77.2836

Any idea what % inhibition apPOL 180' was measured for CC(C)(C)OC(=O)COc1ccc2cc(-c3ccccc3)c(=O)oc2c1 ?
41.9896

Any idea what % inhibition apPOL 180' was measured for Cc1cc(C)c2c(O)nc(SCC(=O)c3ccc(O)c(O)c3)nc2n1 ?
84.8942

Any idea what % inhibition apPOL 180' was measured for Cc1ccc(C)n1-c1ccc(C(=O)NNC(=O)c2ccc3nccnc3c2)cc1 ?
17.1559

* * *

- target.desc: P. falciparum apicoplast DNA polymerase (Pf-apPOL) (Plasmodium falciparum)
- assay: Fluorescence-based high-throughput DNA polymerase assay (molecular beacon), primary screen and dose-response;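 on % inhibition Apol 40': compound concentration given in µM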
- Format: biochemical
- condition.summary: DRC-2; 40'; concentration 2.5
Could you please report measured % inhibition Apol 40' for the items listed next?
Field: numeric (%). Do not append units.

// fetch P. falciparum apicoplast DNA polymerase (Pf-apPOL) (Plasmodium falciparum) % inhibition Apol 40' for Cn1nc(-c2nc(-c3ccccc3)no2)c2c1CCN(C(=O)Cc1cccs1)C2
9

// fetch P. falciparum apicoplast DNA polymerase (Pf-apPOL) (Plasmodium falciparum) % inhibition Apol 40' for O=c1[nH]c2ccc([N+](=O)[O-])cc2c(-c2ccccc2)c1Sc1nc2ccccc2o1
7

// fetch P. falciparum apicoplast DNA polymerase (Pf-apPOL) (Plasmodium falciparum) % inhibition Apol 40' for Cc1ccccc1C(=O)N1CCc2c(nc3cc(-c4ccccc4)[nH]n3c2=O)C1
9

// fetch P. falciparum apicoplast DNA polymerase (Pf-apPOL) (Plasmodium falciparum) % inhibition Apol 40' for CCCCSc1nnc2c(n1)OC(c1ccc([N+](=O)[O-])o1)Nc1ccccc1-2 (centres unmarked)
25

// fetch P. falciparum apicoplast DNA polymerase (Pf-apPOL) (Plasmodium falciparum) % inhibition Apol 40' for CC(C)(C)OC(=O)COc1ccc2cc(-c3ccccc3)c(=O)oc2c1
5.4

// fetch P. falciparum apicoplast DNA polymerase (Pf-apPOL) (Plasmodium falciparum) % inhibition Apol 40' for Cc1cccc2c(C(=O)NC(C)C)cc(N(C)C)nc12
6.48

// fetch P. falciparum apicoplast DNA polymerase (Pf-apPOL) (Plasmodium falciparum) % inhibition Apol 40' for COc1ccc(S(=O)(=O)/N=C2\NC(=O)/C(=C3\C(=O)Nc4ccc([N+](=O)[O-])cc43)S2)cc1
3.68

// fetch P. falciparum apicoplast DNA polymerase (Pf-apPOL) (Plasmodium falciparum) % inhibition Apol 40' for OC(C#Cc1ccccc1)c1ccco1 (centres unmarked)
15

// fetch P. falciparum apicoplast DNA polymerase (Pf-apPOL) (Plasmodium falciparum) % inhibition Apol 40' for Cc1ccc2c(C(=O)NCCc3cccnc3)cc(NC(=O)C(C)C)cc2n1
1.82

// fetch P. falciparum apicoplast DNA polymerase (Pf-apPOL) (Plasmodium falciparum) % inhibition Apol 40' for O=C1N=C(Nc2cccc(Cl)c2Cl)S/C1=C\c1ccco1 [Molecule 3, O=C1N=C(S/C/1=C\c1ccco1)Nc1cccc(c1Cl)Cl]
37

// fetch P. falciparum apicoplast DNA polymerase (Pf-apPOL) (Plasmodium falciparum) % inhibition Apol 40' for Cc1ccc(C2=N/C(=C\c3ccc(I)o3)C(=O)O2)cc1[N+](=O)[O-]
19

// fetch P. falciparum apicoplast DNA polymerase (Pf-apPOL) (Plasmodium falciparum) % inhibition Apol 40' for NC(=O)c1cc[n+](CC2=C(C(=O)[O-])N3C(=O)[C@@H](NC(=O)[C@@H](c4ccccc4)S(=O)(=O)[O-])[C@H]3SC2)cc1.[Na+]
-0.192

// fetch P. falciparum apicoplast DNA polymerase (Pf-apPOL) (Plasmodium falciparum) % inhibition Apol 40' for COc1ccc(C)cc1NC(=O)Cn1ccc2c(=O)[nH]ccc21 [Molecule 15, COc1ccc(cc1NC(=O)Cn1ccc2c1cc[nH]c2=O)C]
0.779

// fetch P. falciparum apicoplast DNA polymerase (Pf-apPOL) (Plasmodium falciparum) % inhibition Apol 40' for Cc1ccc(C)n1-c1ccc(C(=O)NNC(=O)c2ccc3nccnc3c2)cc1
3.18

// fetch P. falciparum apicoplast DNA polymerase (Pf-apPOL) (Plasmodium falciparum) % inhibition Apol 40' for COc1cc(NC(=O)c2ccccc2)c(OC)cc1NC(=O)Cc1cccs1
34

// fetch P. falciparum apicoplast DNA polymerase (Pf-apPOL) (Plasmodium falciparum) % inhibition Apol 40' for COc1ccc(-c2n[nH]cc2Oc2ccc(Cl)cc2)c(O)c1
15

// fetch P. falciparum apicoplast DNA polymerase (Pf-apPOL) (Plasmodium falciparum) % inhibition Apol 40' for Cc1ccc(NC(=O)C2CCN(C(=O)c3cc4ccsc4[nH]3)CC2)c(Br)c1
9

// fetch P. falciparum apicoplast DNA polymerase (Pf-apPOL) (Plasmodium falciparum) % inhibition Apol 40' for CCCCC(=O)N1CCc2c(nc3cc(-c4ccccc4Cl)[nH]n3c2=O)C1
13

// fetch P. falciparum apicoplast DNA polymerase (Pf-apPOL) (Plasmodium falciparum) % inhibition Apol 40' for O=C(c1c[nH]c2ncccc12)N1CCCC1 [Molecule 63, O=C(c1c[nH]c2c1cccn2)N1CCCC1]
3.74

// fetch P. falciparum apicoplast DNA polymerase (Pf-apPOL) (Plasmodium falciparum) % inhibition Apol 40' for CCC(C)NC(=O)c1cc(NC(C)=O)cc2nc(C)ccc12 (centres unmarked)
7

// fetch P. falciparum apicoplast DNA polymerase (Pf-apPOL) (Plasmodium falciparum) % inhibition Apol 40' for CCOc1cccc2cc(C(=O)Nc3nnc(-c4ccno4)o3)oc12
14

// fetch P. falciparum apicoplast DNA polymerase (Pf-apPOL) (Plasmodium falciparum) % inhibition Apol 40' for COc1ccc(-c2cc3nc4c(c(=O)n3[nH]2)CCN(C(=O)CCc2ccccc2)C4)cc1
-5.29

// fetch P. falciparum apicoplast DNA polymerase (Pf-apPOL) (Plasmodium falciparum) % inhibition Apol 40' for COc1cccc(C(=O)N2CCc3c(nc4cc(-c5ccccc5)[nH]n4c3=O)C2)c1OC
-1.15

// fetch P. falciparum apicoplast DNA polymerase (Pf-apPOL) (Plasmodium falciparum) % inhibition Apol 40' for O=C(Cn1ccc2c(=O)[nH]ccc21)Nc1ccc(Cl)cc1 [Molecule 36, O=C(Cn1ccc2c1cc[nH]c2=O)Nc1ccc(cc1)Cl]
-0.111

// fetch P. falciparum apicoplast DNA polymerase (Pf-apPOL) (Plasmodium falciparum) % inhibition Apol 40' for Oc1cccc2ccc(/C=C/c3ccc4c(c3)OCO4)nc12
14

// fetch P. falciparum apicoplast DNA polymerase (Pf-apPOL) (Plasmodium falciparum) % inhibition Apol 40' for CCCCCCCCCCCC1SCC(C(=O)O)N1C(C)=O (centres unmarked)
10

// fetch P. falciparum apicoplast DNA polymerase (Pf-apPOL) (Plasmodium falciparum) % inhibition Apol 40' for COc1cccc(Oc2c(C(F)(F)F)oc3cc(OC(=O)N(C)C)ccc3c2=O)c1
14

// fetch P. falciparum apicoplast DNA polymerase (Pf-apPOL) (Plasmodium falciparum) % inhibition Apol 40' for COc1ccc(C(=O)N2CCc3c(nc4cc(-c5ccccc5Cl)[nH]n4c3=O)C2)cn1
6.48

// fetch P. falciparum apicoplast DNA polymerase (Pf-apPOL) (Plasmodium falciparum) % inhibition Apol 40' for O=C(NC(C(Cl)Cl)S(=O)(=O)c1ccccc1)c1ccccc1 (centres unmarked)
11

// fetch P. falciparum apicoplast DNA polymerase (Pf-apPOL) (Plasmodium falciparum) % inhibition Apol 40' for O=C(O)c1c(F)c(F)c(-c2c(F)c(F)c(C(=O)O)c(F)c2F)c(F)c1F
5

// fetch P. falciparum apicoplast DNA polymerase (Pf-apPOL) (Plasmodium falciparum) % inhibition Apol 40' for Cc1ccc(NC(=O)Cn2ccc3c(=O)[nH]ccc32)cc1F [Molecule 48, O=C(Cn1ccc2c1cc[nH]c2=O)Nc1ccc(c(c1)F)C]
-4.56

// fetch P. falciparum apicoplast DNA polymerase (Pf-apPOL) (Plasmodium falciparum) % inhibition Apol 40' for CC(=O)c1cc2c(N)c(/C(N)=N/C#N)sc2nc1C
6

The measurements presented in this section are drawn from paper PMC9090415.
